System: Pseudomonas aeruginosa
Experiment: Synergistic antibacterial activity against Pseudomonas aeruginosa PAO1 after 18 hrs in presence of rifampicin by checkerboard assay
Assay type: functional
Activity calls are given as the source filed them. No cut-off for these calls is given here.
Valid outcomes are listed here; reply with one: class 1 for active, class 0 for inactive

// outcome(item) with item = NC[C@H]1O[C@H](O[C@H]2[C@H](O)[C@@H](O[C@H]3O[C@H](CO)[C@@H](O)[C@H](N)[C@H]3O)[C@H](N)C[C@@H]2N)[C@H](N)C[C@@H]1O
class 0

// outcome(item) with item = Cl.Cl.Cl.Cl.Cl.Cl.Cl.NCCCC[C@H](N)C(=O)N(CCCCO[C@@H]1[C@@H](O[C@H]2O[C@H](CO)[C@@H](O)[C@H](N)[C@H]2O)[C@H](N)C[C@H](N)[C@H]1O[C@H]1O[C@H](CN)[C@@H](O)C[C@H]1N)Cc1c2ccccc2c(Cl)c2ccccc12
class 0

// outcome(item) with item = Cl.Cl.Cl.Cl.Cl.Cl.Cl.NCCCC[C@H](N)C(=O)N(CCCCCCCCOC1[C@@H](O[C@H]2O[C@H](CO)[C@@H](O)[C@H](N)[C@H]2O)[C@H](N)C[C@H](N)[C@H]1O[C@H]1O[C@H](CN)[C@@H](O)C[C@H]1N)Cc1c2ccccc2c(Cl)c2ccccc12 (single isomer, unassigned)
class 1

// outcome(item) with item = CCCCCCCCCCCCN(Cc1c2ccccc2c(Cl)c2ccccc12)C(=O)[C@@H](N)CCCCN.O=C(O)C(F)(F)F.O=C(O)C(F)(F)F
class 0

###

Tested on: Pseudomonas aeruginosa
Assay: Antibacterial activity against Pseudomonas aeruginosa ATCC 27853 after 18 hrs by microtiter dilution assay
Assay type: functional
Conditions: ATCC 27853, 18 h
Quantity Kind: MIC

Which value of MIC has been reported for Cl.Cl.Cl.Cl.Cl.Cl.Cl.NCCCC[C@H](N)C(=O)N(CCCCCCCCCCCCO[C@@H]1[C@@H](O[C@H]2O[C@H](CO)[C@@H](O)[C@H](N)[C@H]2O)[C@H](N)C[C@H](N)[C@H]1O[C@H]1O[C@H](CN)[C@@H](O)C[C@H]1N)Cc1c2ccccc2c(Cl)c2ccccc12 in the records?
32 µg/mL

Which value of MIC has been reported for CCCCCCCCCCCCN(Cc1c2ccccc2c(Cl)c2ccccc12)C(=O)[C@@H](N)CCCCN.O=C(O)C(F)(F)F.O=C(O)C(F)(F)F in the records?
> 128 µg/mL

Which value of MIC has been reported for Cl.Cl.Cl.Cl.Cl.Cl.Cl.NCCCC[C@H](N)C(=O)N(CCCCO[C@@H]1[C@@H](O[C@H]2O[C@H](CO)[C@@H](O)[C@H](N)[C@H]2O)[C@H](N)C[C@H](N)[C@H]1O[C@H]1O[C@H](CN)[C@@H](O)C[C@H]1N)Cc1c2ccccc2c(Cl)c2ccccc12 in the records?
> 128 µg/mL

Which value of MIC has been reported for Cl.Cl.Cl.Cl.Cl.Cl.Cl.NCCCC[C@H](N)C(=O)N(CCCCCCCCOC1[C@@H](O[C@H]2O[C@H](CO)[C@@H](O)[C@H](N)[C@H]2O)[C@H](N)C[C@H](N)[C@H]1O[C@H]1O[C@H](CN)[C@@H](O)C[C@H]1N)Cc1c2ccccc2c(Cl)c2ccccc12 (single isomer, unassigned) in the records?
> 128 µg/mL

###

Please provide measured MIC for the entries that follow.
Tested on: Enterococcus faecium
Experiment: Antibacterial activity against Enterococcus faecium ATCC 27270 after 18 hrs by microtiter dilution assay
Format: functional
Details: ATCC 27270, 18 h

Param readout= MIC; system= Enterococcus faecium; entry= Cl.Cl.Cl.Cl.Cl.Cl.Cl.NCCCC[C@H](N)C(=O)N(CCCCCCCCCCCCO[C@@H]1[C@@H](O[C@H]2O[C@H](CO)[C@@H](O)[C@H](N)[C@H]2O)[C@H](N)C[C@H](N)[C@H]1O[C@H]1O[C@H](CN)[C@@H](O)C[C@H]1N)Cc1c2ccccc2c(Cl)c2ccccc12 ; returns value.
8 µg/mL

Param readout= MIC; system= Enterococcus faecium; entry= Cl.Cl.Cl.Cl.Cl.Cl.Cl.NCCCC[C@H](N)C(=O)N(CCCCO[C@@H]1[C@@H](O[C@H]2O[C@H](CO)[C@@H](O)[C@H](N)[C@H]2O)[C@H](N)C[C@H](N)[C@H]1O[C@H]1O[C@H](CN)[C@@H](O)C[C@H]1N)Cc1c2ccccc2c(Cl)c2ccccc12 ; returns value.
> 128 µg/mL

Param readout= MIC; system= Enterococcus faecium; entry= Cl.Cl.Cl.Cl.Cl.Cl.Cl.NCCCC[C@H](N)C(=O)N(CCCCCCCCOC1[C@@H](O[C@H]2O[C@H](CO)[C@@H](O)[C@H](N)[C@H]2O)[C@H](N)C[C@H](N)[C@H]1O[C@H]1O[C@H](CN)[C@@H](O)C[C@H]1N)Cc1c2ccccc2c(Cl)c2ccccc12 (single isomer, unassigned) ; returns value.
16 µg/mL

Param readout= MIC; system= Enterococcus faecium; entry= CCCCCCCCCCCCN(Cc1c2ccccc2c(Cl)c2ccccc12)C(=O)[C@@H](N)CCCCN.O=C(O)C(F)(F)F.O=C(O)C(F)(F)F ; returns value.
8 µg/mL
